Source listed as PubChem BioAssay (NCI).

Measured growth, listed per entry for reference.
# System: A498 renal
# assay_summary: NCI-60 one-dose screen, 48 h (100 = growth as untreated, 0 = no growth, -100 = all killed)
# reported_conditions: 10 µM
This is part of a sample that, as a whole, favours compounds with a hit. Of some 83,000 tested, about 20% had one in any assay.

compound: O=C(Nc1ccncc1)C(=O)c1cn(S(=O)(=O)c2cc(Cl)cc(Cl)c2)c2ccccc12
system_name: A498 renal
reading_unit: %
growth: 63.1
//
compound: CN1CC[C@@H](c2c(O)cc(O)c3c(=O)cc(-c4ccccc4Cl)oc23)[C@@H](O)C1
system_name: A498 renal
reading_unit: %
growth: -40.8
//
compound: Cc1cccc(Cl)c1NC(=O)c1ccc2nc(NC(=O)NC3CCN(C)CC3)sc2c1
system_name: A498 renal
reading_unit: %
growth: 104
//
compound: COc1ccc2c(c1)-c1c(c3cc(OC)ccc3n(CCN(C)C)c1=O)C2=O
system_name: A498 renal
reading_unit: %
growth: 48.6
//
compound: c1ccc(CSc2nnc3c4c5c(sc4nc(-c4cccnc4)n23)CCCCCC5)cc1
system_name: A498 renal
reading_unit: %
growth: 58.5
//
compound: Cc1cc(Cl)nc(N(CCCNc2ccnc3cc(Cl)ccc23)Cc2cccs2)n1
system_name: A498 renal
reading_unit: %
growth: 19.6
//
compound: COc1ccc(S(=O)(=O)Nc2c(/C=C\c3cc(OC)c(OC)c(OC)c3)ccc(OC)c2O)cc1
system_name: A498 renal
reading_unit: %
growth: -19.9
//
compound: CCN(CC)CCSCCN(CC)CC
system_name: A498 renal
reading_unit: %
growth: 89.4
//
compound: CN(C)CCOc1nc2ccccc2c2c1-c1ccc(Cl)cc1C2=O
system_name: A498 renal
reading_unit: %
growth: 25.2
//
compound: NC(=O)CC1(c2ccccc2)CCCCC1
system_name: A498 renal
reading_unit: %
growth: 102
//
compound: COc1ccc2c(c1)C(=O)c1c-2c(OCCN(C)C)nc2cc(OC)c(OC)cc12
system_name: A498 renal
reading_unit: %
growth: 102
//
compound: COc1ccc(-c2nn(-c3cccc(NC(=O)Nc4ccc(Cl)c(C(F)(F)F)c4)c3)cc2-c2ccncc2)cc1Cl
system_name: A498 renal
reading_unit: %
growth: -0.894
//
compound: CC(C)(Cl)CCC1=C(Cl)C(=O)c2ccccc2C1=O
system_name: A498 renal
reading_unit: %
growth: 27.4
//
compound: Cc1ccc(-c2nc(/C=C3/C(=O)N(C)c4ccc(F)cc43)c3ccccn23)cc1
system_name: A498 renal
reading_unit: %
growth: 95.9
//
compound: COC(=O)C1(C)Cc2cc(OC(C)=O)c(OC(C)=O)cc2N1 (stereo not given)
system_name: A498 renal
reading_unit: %
growth: 92.8
//
compound: CC1(C)OC2=C(CC1Br)C(=O)C(=O)c1ccccc12 (stereo not given)
system_name: A498 renal
reading_unit: %
growth: 101
//
compound: COc1ccc(Oc2nc(NC3CCCC3)nc(Sc3ccc(OC)cc3)n2)cc1
system_name: A498 renal
reading_unit: %
growth: 65.5
//
compound: COc1ccc(-c2nn(-c3cccc(NC(=O)c4ccc(Cl)c(Cl)c4)c3)cc2-c2ccncc2)cc1Cl
system_name: A498 renal
reading_unit: %
growth: 54.7
//
compound: COc1cc2c(cc1OC)N(CCO)C1=C(C(=O)OC1)C2c1ccc(Cl)c(Cl)c1 (stereo not given)
system_name: A498 renal
reading_unit: %
growth: 89.3
//
compound: COc1cc(Cl)cc(-c2nn(-c3cccc(NC(=O)Nc4cc(C(F)(F)F)cc(C(F)(F)F)c4)c3)cc2-c2ccncc2)c1
system_name: A498 renal
reading_unit: %
growth: -21.6
